assay-target: human TLR9 (Homo sapiens)
Sequence (Q9NR96 26-1032): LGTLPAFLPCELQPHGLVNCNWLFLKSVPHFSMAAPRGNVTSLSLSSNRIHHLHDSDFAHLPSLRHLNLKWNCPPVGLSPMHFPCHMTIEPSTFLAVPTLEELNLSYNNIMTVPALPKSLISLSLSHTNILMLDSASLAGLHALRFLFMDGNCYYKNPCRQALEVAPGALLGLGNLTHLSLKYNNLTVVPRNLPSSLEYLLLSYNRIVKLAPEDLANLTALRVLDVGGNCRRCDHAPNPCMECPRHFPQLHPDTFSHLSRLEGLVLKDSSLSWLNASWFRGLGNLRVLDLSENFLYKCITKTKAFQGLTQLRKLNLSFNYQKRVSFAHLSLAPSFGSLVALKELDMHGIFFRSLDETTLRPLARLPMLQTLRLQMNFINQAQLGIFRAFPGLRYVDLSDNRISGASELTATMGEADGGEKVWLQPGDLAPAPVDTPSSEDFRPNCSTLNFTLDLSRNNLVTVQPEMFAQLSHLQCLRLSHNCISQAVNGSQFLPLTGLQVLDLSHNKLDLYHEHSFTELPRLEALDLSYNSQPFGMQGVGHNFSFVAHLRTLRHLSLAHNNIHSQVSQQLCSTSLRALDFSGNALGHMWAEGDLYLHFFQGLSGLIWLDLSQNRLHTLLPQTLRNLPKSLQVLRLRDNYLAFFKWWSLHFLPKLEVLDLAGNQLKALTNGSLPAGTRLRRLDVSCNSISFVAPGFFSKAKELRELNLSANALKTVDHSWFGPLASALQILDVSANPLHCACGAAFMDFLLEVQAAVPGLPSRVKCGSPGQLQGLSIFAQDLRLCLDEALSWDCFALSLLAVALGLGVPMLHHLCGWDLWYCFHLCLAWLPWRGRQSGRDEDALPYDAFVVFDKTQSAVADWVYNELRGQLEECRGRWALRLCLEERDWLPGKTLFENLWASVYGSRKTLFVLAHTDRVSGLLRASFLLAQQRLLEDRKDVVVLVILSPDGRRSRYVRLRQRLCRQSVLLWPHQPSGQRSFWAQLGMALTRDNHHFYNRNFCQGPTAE
assay-notes: TLR9 inhibition reporter assay (HEK-Blue SEAP)
settings: HEK-Blue cells overexpressing human TLR9, ODN2006 5 nM, 22 hour incubation
Can you tell me IC50 for the items I'm about to list?
One number for each entry, in µM.

Below: 2 molecules and their reported IC50.
molecule	IC50, µM
CCc1cc2c(cc1-c1cc(OC)c3ncnn3c1)[nH]c(=O)n2[C@H]1CC[C@@H](N(CC)CC)CC1	18.3
COc1cc(-c2cc3[nH]c(=O)n(C4CCC(N5CC[C@H](F)C5)CC4)c3cc2C(C)C)cn2ncnc12 (stereo partly shown) [Example 286]	4.28

Q: Write down the reported IC50 of COc1cc(-c2cc3[nH]c(=O)n([C@H]4CC[C@H](NC5COC5)CC4)c3cc2C(C)C)cn2ncnc12 , test system: human TLR9 (Homo sapiens).
Ans: 22.9
